tested on: NCI-H322M multicellular tumor spheroids, viability (% test/control); assay: Anticancer human tumor NCI-H322M cell line growth inhibition; conditions: second compound 0.0003 µM; first compound 3 µM; active compounds read low
Overview of recorded viability, T/C for various compounds

Compound	viability, T/C
O=C(c1cc(Cc2n[nH]c(=O)c3ccccc23)ccc1F)N1CCN(C(=O)C2CC2)CC1 + COc1cc2c(cc1O)CCNC21CSC2c3c(OC(C)=O)c(C)c4c(c3C(COC1=O)N1C(O)C3Cc5cc(C)c(OC)c(O)c5C(C21)N3C)OCO4	83.3%
Cn1ncnc1[C@H]1c2n[nH]c(=O)c3cc(F)cc(c23)N[C@@H]1c1ccc(F)cc1 + COc1cc2c(cc1O)CCNC21CSC2c3c(OC(C)=O)c(C)c4c(c3C(COC1=O)N1C(O)C3Cc5cc(C)c(OC)c(O)c5C(C21)N3C)OCO4	62.9%
CNCc1ccc(-c2cc(-c3nc(-c4ccc(S(=O)(=O)C(C)C)cc4)cnc3N)on2)cc1 + COc1cc2c(cc1O)CCNC21CSC2c3c(OC(C)=O)c(C)c4c(c3C(COC1=O)N1C(O)C3Cc5cc(C)c(OC)c(O)c5C(C21)N3C)OCO4	59.2%
Cc1sc2c(c1C)C(c1ccc(Cl)cc1)=NC(CC(=O)Nc1ccc(O)cc1)c1nnc(C)n1-2 (centres undefined) + COc1cc2c(cc1O)CCNC21CSC2c3c(OC(C)=O)c(C)c4c(c3C(COC1=O)N1C(O)C3Cc5cc(C)c(OC)c(O)c5C(C21)N3C)OCO4	33.1%

* * *

tested on: NCI-H322M multicellular tumor spheroids, viability (% test/control); assay: Anticancer human tumor NCI-H322M cell line growth inhibition; details: second compound 0.000949 µM; first compound 3.16 µM; active compounds read low;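 also: spheroids exposed to compound for seven days before readout; 100% = DMSO vehicle control wells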
Measure: viability, T/C (%)

Molecule	Target or system	Unit string	Observed result
CC(C)n1c(=O)n(C)c2cnc3cc(F)c(-c4ccc(OCCCN5CCCCC5)nc4)cc3c21 + COc1cc2c(cc1O)CCNC21CSC2c3c(OC(C)=O)c(C)c4c(c3C(COC1=O)N1C(O)C3Cc5cc(C)c(OC)c(O)c5C(C21)N3C)OCO4	NCI-H322M multicellular tumor spheroids, viability (% test/control)	%	46.6
Cc1cc(C)c(CNC(=O)c2cc(-c3ccc(CN4CCOCC4)cc3)cc3c2cnn3C2CCCC2)c(=O)[nH]1 + COc1cc2c(cc1O)CCNC21CSC2c3c(OC(C)=O)c(C)c4c(c3C(COC1=O)N1C(O)C3Cc5cc(C)c(OC)c(O)c5C(C21)N3C)OCO4	NCI-H322M multicellular tumor spheroids, viability (% test/control)	%	82
COc1ccc([C@@H](O)c2cc(-c3ncnc4cc(N5CCOCC5)ccc34)c(F)cc2Cl)nn1 + COc1cc2c(cc1O)CCNC21CSC2c3c(OC(C)=O)c(C)c4c(c3C(COC1=O)N1C(O)C3Cc5cc(C)c(OC)c(O)c5C(C21)N3C)OCO4	NCI-H322M multicellular tumor spheroids, viability (% test/control)	%	5.57
CC1COCCN1c1cc(-c2ccnn2C)c2ccnc(-c3ccn[nH]3)c2n1 (stereo unspecified) + COc1cc2c(cc1O)CCNC21CSC2c3c(OC(C)=O)c(C)c4c(c3C(COC1=O)N1C(O)C3Cc5cc(C)c(OC)c(O)c5C(C21)N3C)OCO4	NCI-H322M multicellular tumor spheroids, viability (% test/control)	%	18.8
[2H]c1nc(C)nc([2H])c1-c1cc(NC[C@@H](C)c2cccc3c(C(=O)NC)ccnc23)ncn1 + COc1cc2c(cc1O)CCNC21CSC2c3c(OC(C)=O)c(C)c4c(c3C(COC1=O)N1C(O)C3Cc5cc(C)c(OC)c(O)c5C(C21)N3C)OCO4	NCI-H322M multicellular tumor spheroids, viability (% test/control)	%	76
COc1cc(C)[nH]c(=O)c1CN1CCc2c(Cl)cc(C(OC)C3COC3)c(Cl)c2C1=O (stereo unspecified) + COc1cc2c(cc1O)CCNC21CSC2c3c(OC(C)=O)c(C)c4c(c3C(COC1=O)N1C(O)C3Cc5cc(C)c(OC)c(O)c5C(C21)N3C)OCO4	NCI-H322M multicellular tumor spheroids, viability (% test/control)	%	74.7

* * *

System: NCI-H322M multicellular tumor spheroids, viability (% test/control)
Assay: Anticancer human tumor NCI-H322M cell line growth inhibition;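 also: spheroids exposed to compound for seven days before readout; 100% = DMSO vehicle control wells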
Conditions: second compound 0.00949 µM; first compound 10 µM; active compounds read low
Procedure: Multicellular complex tumor spheroid response to DNA repair inhibitors in combination with DNA-damaging drugs This study explores the anticancer activities of DNA-damaging drugs and inhibitors of DNA damage repair, both as single agents and in combinations. […] Twenty-six patient-derived or established malignant cell lines were evaluated representing sarcoma, melanoma, small cell lung cancer (SCLC), non-small cell lung cancer (NSCLC), as well as bladder, ovarian and pancreatic cancers. […]
Output Criterion met for records whose viability, T/C is lower than 70%, Criterion not met for records at or above 70%.

Compound	Label class
COc1ccc([C@@H](O)c2cc(-c3ncnc4cc(N5CCOCC5)ccc34)c(F)cc2Cl)nn1 + CC[C@@]1(O)C(=O)OCc2c1cc1n(c2=O)Cc2cc3c(CN(C)C)c(O)ccc3nc2-1	Criterion met
Cc1cc(C)c(CNC(=O)c2cc(-c3ccc(CN4CCOCC4)cc3)cc3c2cnn3C2CCCC2)c(=O)[nH]1 + CC[C@@]1(O)C(=O)OCc2c1cc1n(c2=O)Cc2cc3c(CN(C)C)c(O)ccc3nc2-1	Criterion not met
[2H]c1nc(C)nc([2H])c1-c1cc(NC[C@@H](C)c2cccc3c(C(=O)NC)ccnc23)ncn1 + CC[C@@]1(O)C(=O)OCc2c1cc1n(c2=O)Cc2cc3c(CN(C)C)c(O)ccc3nc2-1	Criterion not met
CC1COCCN1c1cc(-c2ccnn2C)c2ccnc(-c3ccn[nH]3)c2n1 (stereo unspecified) + CC[C@@]1(O)C(=O)OCc2c1cc1n(c2=O)Cc2cc3c(CN(C)C)c(O)ccc3nc2-1	Criterion met
COc1cc(C)[nH]c(=O)c1CN1CCc2c(Cl)cc(C(OC)C3COC3)c(Cl)c2C1=O (stereo unspecified) + CC[C@@]1(O)C(=O)OCc2c1cc1n(c2=O)Cc2cc3c(CN(C)C)c(O)ccc3nc2-1	Criterion not met

* * *

system: NCI-H322M multicellular tumor spheroids, viability (% test/control); test: Anticancer human tumor NCI-H322M cell line growth inhibition; details: second compound 30 pM; first compound 3 µM; active compounds read low;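 also: spheroids exposed to compound for seven days before readout; 100% = DMSO vehicle control wells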
Overview of recorded viability, T/C for various molecules

Molecule	viability, T/C (%)
CNCc1ccc(-c2cc(-c3nc(-c4ccc(S(=O)(=O)C(C)C)cc4)cnc3N)on2)cc1 + COc1cc2c(cc1O)CCNC21CSC2c3c(OC(C)=O)c(C)c4c(c3C(COC1=O)N1C(O)C3Cc5cc(C)c(OC)c(O)c5C(C21)N3C)OCO4	70
O=C(c1cc(Cc2n[nH]c(=O)c3ccccc23)ccc1F)N1CCN(C(=O)C2CC2)CC1 + COc1cc2c(cc1O)CCNC21CSC2c3c(OC(C)=O)c(C)c4c(c3C(COC1=O)N1C(O)C3Cc5cc(C)c(OC)c(O)c5C(C21)N3C)OCO4	79.8
Cn1ncnc1[C@H]1c2n[nH]c(=O)c3cc(F)cc(c23)N[C@@H]1c1ccc(F)cc1 + COc1cc2c(cc1O)CCNC21CSC2c3c(OC(C)=O)c(C)c4c(c3C(COC1=O)N1C(O)C3Cc5cc(C)c(OC)c(O)c5C(C21)N3C)OCO4	65.6
Cc1sc2c(c1C)C(c1ccc(Cl)cc1)=NC(CC(=O)Nc1ccc(O)cc1)c1nnc(C)n1-2 (centres undefined) + COc1cc2c(cc1O)CCNC21CSC2c3c(OC(C)=O)c(C)c4c(c3C(COC1=O)N1C(O)C3Cc5cc(C)c(OC)c(O)c5C(C21)N3C)OCO4	60.1

* * *

system: NCI-H322M multicellular tumor spheroids, viability (% test/control); test: Anticancer human tumor NCI-H322M cell line growth inhibition; settings: second compound 3.16 µM; first compound 10 µM; active compounds read low;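 also: spheroids exposed to compound for seven days before readout; 100% = DMSO vehicle control wells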
Output YES for records whose viability, T/C is lower than 80%, NO for records at or above 80%.

Compound	Label class
COc1ccc([C@@H](O)c2cc(-c3ncnc4cc(N5CCOCC5)ccc34)c(F)cc2Cl)nn1 + Cn1nnc2c(C(N)=O)ncn2c1=O	YES
CC(C)n1c(=O)n(C)c2cnc3cc(F)c(-c4ccc(OCCCN5CCCCC5)nc4)cc3c21 + Cn1nnc2c(C(N)=O)ncn2c1=O	NO
Cc1cc(C)c(CNC(=O)c2cc(-c3ccc(CN4CCOCC4)cc3)cc3c2cnn3C2CCCC2)c(=O)[nH]1 + Cn1nnc2c(C(N)=O)ncn2c1=O	NO
COc1cc(C)[nH]c(=O)c1CN1CCc2c(Cl)cc(C(OC)C3COC3)c(Cl)c2C1=O (stereo unspecified) + Cn1nnc2c(C(N)=O)ncn2c1=O	NO
[2H]c1nc(C)nc([2H])c1-c1cc(NC[C@@H](C)c2cccc3c(C(=O)NC)ccnc23)ncn1 + Cn1nnc2c(C(N)=O)ncn2c1=O	NO
CC1COCCN1c1cc(-c2ccnn2C)c2ccnc(-c3ccn[nH]3)c2n1 (stereo unspecified) + Cn1nnc2c(C(N)=O)ncn2c1=O	YES
